Source of measurements: PubChem BioAssay (EPA / NIEHS)

Read-out: Early growth response protein 1 (EGR1) transcription factor, EGR1 (gene 1958)
Experiment: LTEA_HepaRG_EGR1: Life Technologies and Expression Analysis (LTEA) Assay for Early growth response protein 1 (EGR1) transcription factor using HepaRG (AID 2283490)
Settings: mRNA level, 48 h; actives raise or lower the signal
The source made the active and inactive calls. Rule for the calls: active = hit-call score of the fitted dose curve at least 0.9, where 1 is the maximum; inactive = score below 0.9.
Outcome codes: active, inactive

compound="CCCCC(CC)CO (stereo unspecified)" class_name=inactive
compound=CCc1cc(C2=C(C(=O)O)N(c3ccccc3C(F)(F)F)S(=O)(=O)c3ccccc32)cc2c1OCO2 class_name=active
compound=CN(C)CCCN1c2ccccc2Sc2ccc(Cl)cc21 class_name=active
compound=Cc1ccc(-c2cc(C(F)(F)F)nn2-c2ccc(S(N)(=O)=O)cc2)cc1 class_name=inactive
compound=OCC(CO)n1cnc(-c2ccc(F)cc2)c1-c1ccnc(Oc2ccccc2)n1 class_name=active
compound=OCC(O)CO class_name=inactive

====

Biological target: Cellular tumor antigen p53 (Homo sapiens)
Test: TOX21_p53_BLA_p2_ratio: Tox21 HCT-116 p53 Agonism Beta-lactamase Assay, Ratio, Phase 2 (AID 2283592)
Inconclusive results are not listed. The source made the active and inactive calls. Rule for the calls: active = hit-call score of the fitted dose curve at least 0.9, where 1 is the maximum; inconclusive = response in the unintended direction; inactive = score below 0.9.
Outcome codes: active, inactive

molecule="CCCCC(CC)COC(=O)CCCCCCCC(=O)OCC(CC)CCCC (stereo not given)" class_name=inactive
molecule=Cc1cc(Cc2ccc(N)c(C)c2)ccc1N class_name=inactive
molecule=CC(=O)S[C@H](C(=O)N[C@H]1Cc2ccccc2[C@H]2CCC[C@@H](C(=O)O)N2C1=O)C(C)C class_name=inactive
molecule="CCCCC(CC)CO (stereo not given)" class_name=inactive
molecule=OCC(CO)n1cnc(-c2ccc(F)cc2)c1-c1ccnc(Oc2ccccc2)n1 class_name=inactive
molecule=CCCCCCCCCC[N+](C)(C)[O-] class_name=inactive
molecule=CN(C)CCCN(C)CCCN(C)C class_name=inactive
molecule=COc1ccc(OC(F)(F)F)cc1CN[C@H]1CCCN[C@H]1c1ccccc1 class_name=inactive
molecule=COc1ccc(C(=O)Nc2nc3ccccc3c(NCc3ccccc3)c2C#N)cc1 class_name=active
molecule=Cc1cc(SC2=C(O)C[C@@](CCc3ccc(N)cc3)(C(C)C)OC2=O)c(C(C)(C)C)cc1CO class_name=inactive
molecule=c1ccc2occc2c1 class_name=inactive
molecule=Cc1ccc(C(C)(C)C)c(O)c1 class_name=inactive
molecule=COC(=O)CCCC(=O)OC class_name=inactive
molecule=O=C1OC(c2ccc(O)cc2)(c2ccc(O)cc2)c2ccccc21 class_name=inactive
molecule=CCCCc1nc2cccnc2n1Cc1ccc(-c2ccccc2-c2nnn[nH]2)cc1 class_name=inactive
molecule=CCOCCOCCO class_name=inactive
molecule=CCCC[C@H]1CN(CC2CCOCC2)C(=O)OC12CCN(C1(C)CCN(C(=O)c3c(C)ncnc3C)CC1)CC2 class_name=inactive
molecule=O=C(O)CN(CC(=O)O)CC(=O)O class_name=inactive
molecule=COC(=O)[C@H]1[C@H]2C[C@@H]3c4[nH]c5cc(OC)ccc5c4CCN3C[C@H]2C[C@@H](OC(=O)c2cc(OC)c(OC)c(OC)c2)[C@@H]1OC class_name=inactive
molecule="CCCCCCC(CCCCCCCCCCC(=O)OCC(COC(C)=O)OC(C)=O)OC(C)=O (stereo not given)" class_name=inactive

====

Read-out: CYP2C8 (gene 1558)
Test: LTEA_HepaRG_CYP2C8: Life Technologies and Expression Analysis (LTEA) Assay for CYP2C8 using HepaRG (AID 2283483)
Details: mRNA level, 48 h; actives raise or lower the signal
The source made the active and inactive calls. The calls were made as follows: active = hit-call score of the fitted dose curve at least 0.9, where 1 is the maximum; inactive = score below 0.9.
Outcome codes: active, inactive

molecule=CCCC(=O)O class_name=inactive
molecule=C=CCc1ccc(OC)c(OC)c1 class_name=inactive
molecule="CCCCCCC(CCCCCCCCCCC(=O)OCC(COC(C)=O)OC(C)=O)OC(C)=O (stereo not drawn)" class_name=inactive
molecule=N[C@@H](Cc1c[nH]c2ccccc12)C(=O)O class_name=inactive
molecule=CCCCCCCCCCCCCCCCO class_name=inactive
molecule=O=NO class_name=inactive
molecule=CN(C)C(=O)NC1(c2ccccc2)CCN(CCC[C@]2(c3ccc(Cl)c(Cl)c3)CCCN(C(=O)c3ccccc3)C2)CC1 class_name=inactive
molecule=CCc1cc(C2=C(C(=O)O)N(c3ccccc3C(F)(F)F)S(=O)(=O)c3ccccc32)cc2c1OCO2 class_name=active
molecule=CC(C)c1cccc(C(C)C)c1NC(=O)NS(=O)(=O)c1cc(C(C)(C)O)co1 class_name=inactive
molecule="CCCCC(CC)COC(=O)CCCCCCCC(=O)OCC(CC)CCCC (stereo not drawn)" class_name=inactive
molecule=COC(=O)CCCC(=O)OC class_name=inactive
molecule="CCCCC(CC)CO (stereo not drawn)" class_name=inactive
molecule=CC(C)c1cccc(C(C)C)c1 class_name=inactive
molecule=Cc1cn([C@H]2C=C[C@@H](CO)O2)c(=O)[nH]c1=O class_name=inactive
molecule=CC(=O)O[C@]1(C(C)=O)CC[C@H]2[C@@H]3C=C(Cl)C4=CC(=O)[C@@H]5C[C@@H]5[C@]4(C)[C@H]3CC[C@@]21C class_name=inactive
molecule=Cc1cc(SC2=C(O)C[C@@](CCc3ccc(N)cc3)(C(C)C)OC2=O)c(C(C)(C)C)cc1CO class_name=active
molecule=COc1ccc(C(=O)Nc2nc3ccccc3c(NCc3ccccc3)c2C#N)cc1 class_name=active
molecule=O=C1OC(c2ccc(O)cc2)(c2ccc(O)cc2)c2ccccc21 class_name=active
molecule=O=C1c2c(O)cccc2Cc2cccc(O)c21 class_name=inactive
molecule=CCCCCCCC(=O)OC class_name=active
molecule=CCCCCCCCCC[N+](C)(C)[O-] class_name=inactive
molecule=CSc1ccc(Oc2ccc(S(N)(=O)=O)cc2CN(C)C)cc1C class_name=inactive
molecule=CN(C)CCCN1c2ccccc2Sc2ccc(Cl)cc21 class_name=inactive
molecule=CN(C)CCCN(C)CCCN(C)C class_name=inactive
molecule=O=C(NS(=O)(=O)/C=C/c1cccs1)c1ccc(F)cc1Br class_name=inactive
molecule=CCc1nc(N)nc(N)c1-c1ccc(Cl)cc1 class_name=active
molecule=CC(=O)O class_name=inactive
molecule=CC(C)(C)c1ccccc1 class_name=inactive
molecule=COC(=O)CCC(=O)OC class_name=inactive
molecule=CC1=C(C)S(=O)(=O)CCS1(=O)=O class_name=inactive
molecule=O=C(O)CN(CC(=O)O)CC(=O)O class_name=inactive
molecule=CC(N)=O class_name=inactive
molecule="CC(=O)CC(c1ccccc1)c1c(O)c2ccccc2oc1=O (stereo not drawn)" class_name=inactive
